For each entry below, report its Ratio Ki value.
test: Selectivity ratio of Ki for kappa opioid receptor to Ki for mu opioid receptor
Simply state the number, no unit and no words.

# Ratio Ki lookup, item N#Cc1cc(C(=O)N[C@@H]2CC[C@@]3(O)[C@H]4Cc5ccc(O)c6c5[C@@]3(CCN4CC3CC3)[C@H]2O6)ccn1 0.1

Another compound: O=C(N[C@@H]1CC[C@@]2(O)[C@H]3Cc4ccc(O)c5c4[C@@]2(CCN3CC2CC2)[C@H]1O5)c1ccnnc1 0.7

Another compound: COc1cc(C(=O)N[C@@H]2CC[C@@]3(O)[C@H]4Cc5ccc(O)c6c5[C@@]3(CCN4CC3CC3)[C@H]2O6)ccn1 0.8

Another compound: O=C(N[C@@H]1CC[C@@]2(O)[C@H]3Cc4ccc(O)c5c4[C@@]2(CCN3CC2CC2)[C@H]1O5)c1ccnc(Br)c1 0.3

###

target: Mu-type opioid receptor (Homo sapiens, UniProt P35372); assay: Agonist activity at mu opioid receptor expressed in CHO cells assessed as stimulation of [35S]-GTP-gammaS binding
Sequence (P35372 whole entry): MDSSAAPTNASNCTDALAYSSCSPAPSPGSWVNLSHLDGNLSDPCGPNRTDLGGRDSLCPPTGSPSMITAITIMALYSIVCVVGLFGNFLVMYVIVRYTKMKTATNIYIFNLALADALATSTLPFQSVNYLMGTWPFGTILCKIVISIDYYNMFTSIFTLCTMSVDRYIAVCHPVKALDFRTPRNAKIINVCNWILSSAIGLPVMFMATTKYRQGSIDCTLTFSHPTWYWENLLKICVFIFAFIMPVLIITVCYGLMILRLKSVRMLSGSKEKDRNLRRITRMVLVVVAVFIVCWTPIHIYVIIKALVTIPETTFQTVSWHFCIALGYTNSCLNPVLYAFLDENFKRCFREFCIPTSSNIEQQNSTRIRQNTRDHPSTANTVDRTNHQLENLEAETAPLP
Measurement Type: EC50 (nM)
Hi! Could you send only the number? It should be in nM, unit omitted.

# EC50 lookup, item O=C(N[C@@H]1CC[C@@]2(O)[C@H]3Cc4ccc(O)c5c4[C@@]2(CCN3CC2CC2)[C@H]1O5)c1ccnnc1 28.3

Another compound: N#Cc1cc(C(=O)N[C@@H]2CC[C@@]3(O)[C@H]4Cc5ccc(O)c6c5[C@@]3(CCN4CC3CC3)[C@H]2O6)ccn1 10

Another compound: COc1cc(C(=O)N[C@@H]2CC[C@@]3(O)[C@H]4Cc5ccc(O)c6c5[C@@]3(CCN4CC3CC3)[C@H]2O6)ccn1 7.89

###

biological target: Delta-type opioid receptor (Homo sapiens, UniProt P41143); assay: Agonist activity at delta opioid receptor expressed in CHO cells assessed as stimulation of [35S]-GTP-gammaS binding
Sequence (P41143 whole entry): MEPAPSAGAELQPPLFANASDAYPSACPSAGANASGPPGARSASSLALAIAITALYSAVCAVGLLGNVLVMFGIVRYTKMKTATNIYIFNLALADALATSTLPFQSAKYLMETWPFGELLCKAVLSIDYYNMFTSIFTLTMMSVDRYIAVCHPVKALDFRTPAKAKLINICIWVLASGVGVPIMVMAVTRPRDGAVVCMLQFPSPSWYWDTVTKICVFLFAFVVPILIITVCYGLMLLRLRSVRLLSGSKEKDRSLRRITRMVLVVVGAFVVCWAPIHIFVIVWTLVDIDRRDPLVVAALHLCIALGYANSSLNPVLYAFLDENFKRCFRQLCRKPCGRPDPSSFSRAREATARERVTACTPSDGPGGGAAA
For each entry below, report its EC50 value.
The number alone won't do; follow it with the unit.

Value wanted: EC50 (Delta-type opioid receptor (Homo sapiens, UniProt P41143)) of entry O=C(CNC(=O)c1ccncc1)N[C@@H]1CC[C@@]2(O)[C@H]3Cc4ccc(O)c5c4[C@@]2(CCN3CC2CC2)[C@H]1O5 19 nM

Another molecule: Cc1cnccc1C(=O)N[C@@H]1CC[C@@]2(O)[C@H]3Cc4ccc(O)c5c4[C@@]2(CCN3CC2CC2)[C@H]1O5 38.6 nM

###

experiment: Selectivity ratio of Ki for kappa opioid receptor to Ki for mu opioid receptor
For each entry below, report its Ratio Ki value.
Simply state the number, no unit and no words.

# Ratio Ki lookup, item Cc1cc(C(=O)N[C@@H]2CC[C@@]3(O)[C@H]4Cc5ccc(O)c6c5[C@@]3(CCN4CC3CC3)[C@H]2O6)ccn1 1.5

Another molecule: O=C(Cc1ccncc1)N[C@@H]1CC[C@@]2(O)[C@H]3Cc4ccc(O)c5c4[C@@]2(CCN3CC2CC2)[C@H]1O5 10.6

Another molecule: O=C(N[C@@H]1CC[C@@]2(O)[C@H]3Cc4ccc(O)c5c4[C@@]2(CCN3CC2CC2)[C@H]1O5)c1ccncc1Cl 30

###

target: Mu-type opioid receptor (Homo sapiens, UniProt P35372); assay: Agonist activity at mu opioid receptor expressed in CHO cells assessed as stimulation of [35S]-GTP-gammaS binding relative to DAMGO; assay type: cell-based
Categorized via Emax: LOW (below 30%), MID (30% to below 40%), HIGH (40% or more)

GET /class?item= O=C(Cc1ccncc1)N[C@@H]1CC[C@@]2(O)[C@H]3Cc4ccc(O)c5c4[C@@]2(CCN3CC2CC2)[C@H]1O5 MID

Another compound: CN1CCC(C(=O)N[C@@H]2CC[C@@]3(O)[C@H]4Cc5ccc(O)c6c5[C@@]3(CCN4CC3CC3)[C@H]2O6)CC1 MID

Another compound: O=C(CNC(=O)c1ccncc1)N[C@@H]1CC[C@@]2(O)[C@H]3Cc4ccc(O)c5c4[C@@]2(CCN3CC2CC2)[C@H]1O5 LOW

Another compound: O=C(CCc1ccncc1)N[C@@H]1CC[C@@]2(O)[C@H]3Cc4ccc(O)c5c4[C@@]2(CCN3CC2CC2)[C@H]1O5 LOW

Another compound: N#Cc1cc(C(=O)N[C@@H]2CC[C@@]3(O)[C@H]4Cc5ccc(O)c6c5[C@@]3(CCN4CC3CC3)[C@H]2O6)ccn1 HIGH

Another compound: O=C(N[C@@H]1CC[C@@]2(O)[C@H]3Cc4ccc(O)c5c4[C@@]2(CCN3CC2CC2)[C@H]1O5)c1ccnnc1 LOW

Another compound: O=C(N[C@@H]1CC[C@@]2(O)[C@H]3Cc4ccc(O)c5c4[C@@]2(CCN3CC2CC2)[C@H]1O5)c1ccnc(Cl)c1 HIGH

Another compound: COc1cc(C(=O)N[C@@H]2CC[C@@]3(O)[C@H]4Cc5ccc(O)c6c5[C@@]3(CCN4CC3CC3)[C@H]2O6)ccn1 LOW

Another compound: O=C(N[C@@H]1CC[C@@]2(O)[C@H]3Cc4ccc(O)c5c4[C@@]2(CCN3CC2CC2)[C@H]1O5)c1ccnc(Br)c1 HIGH

Another compound: O=C(N[C@@H]1CC[C@@]2(O)[C@H]3Cc4ccc(O)c5c4[C@@]2(CCN3CC2CC2)[C@H]1O5)c1ccncc1Br LOW

Another compound: Cc1cc(C(=O)N[C@@H]2CC[C@@]3(O)[C@H]4Cc5ccc(O)c6c5[C@@]3(CCN4CC3CC3)[C@H]2O6)ccn1 HIGH

Another compound: O=C(N[C@@H]1CC[C@@]2(O)[C@H]3Cc4ccc(O)c5c4[C@@]2(CCN3CC2CC2)[C@H]1O5)c1ccncc1Cl LOW

###

assay: Selectivity ratio of Ki for kappa opioid receptor to Ki for mu opioid receptor
Classify: Condition met when Ratio Ki is strictly less than 8; Condition not met when Ratio Ki is not.

Could you please tell me whether Ratio Ki recorded for O=C(CCc1ccncc1)N[C@@H]1CC[C@@]2(O)[C@H]3Cc4ccc(O)c5c4[C@@]2(CCN3CC2CC2)[C@H]1O5 is less than 8? Condition met

Another compound: C[N@+]1(CC2CC2)CC[C@]23c4c5ccc(O)c4O[C@H]2C(=O)CC[C@@]3(O)[C@H]1C5 Condition not met

Another compound: CN1CCC(C(=O)N[C@@H]2CC[C@@]3(O)[C@H]4Cc5ccc(O)c6c5[C@@]3(CCN4CC3CC3)[C@H]2O6)CC1 Condition met

Another compound: O=C(N[C@@H]1CC[C@@]2(O)[C@H]3Cc4ccc(O)c5c4[C@@]2(CCN3CC2CC2)[C@H]1O5)c1ccnc(Cl)c1 Condition met

Another compound: COc1cnccc1C(=O)N[C@@H]1CC[C@@]2(O)[C@H]3Cc4ccc(O)c5c4[C@@]2(CCN3CC2CC2)[C@H]1O5 Condition not met

Another compound: O=C(N[C@@H]1CC[C@@]2(O)[C@H]3Cc4ccc(O)c5c4[C@@]2(CCN3CC2CC2)[C@H]1O5)c1ccncc1Br Condition met

Another compound: Cc1cnccc1C(=O)N[C@@H]1CC[C@@]2(O)[C@H]3Cc4ccc(O)c5c4[C@@]2(CCN3CC2CC2)[C@H]1O5 Condition not met

###

molecular target: Delta-type opioid receptor (Homo sapiens); assay: Displacement of [3H]NTI from delta opioid receptor expressed in CHO cells after 1 hr
Measurement Type: Ki
The number alone won't do; follow it with the unit.

# Ki lookup, item COc1cnccc1C(=O)N[C@@H]1CC[C@@]2(O)[C@H]3Cc4ccc(O)c5c4[C@@]2(CCN3CC2CC2)[C@H]1O5 104 nM

Another compound: N#Cc1cc(C(=O)N[C@@H]2CC[C@@]3(O)[C@H]4Cc5ccc(O)c6c5[C@@]3(CCN4CC3CC3)[C@H]2O6)ccn1 75.3 nM

Another compound: O=C(N[C@@H]1CC[C@@]2(O)[C@H]3Cc4ccc(O)c5c4[C@@]2(CCN3CC2CC2)[C@H]1O5)c1ccnnc1 420 nM

Another compound: COc1cc(C(=O)N[C@@H]2CC[C@@]3(O)[C@H]4Cc5ccc(O)c6c5[C@@]3(CCN4CC3CC3)[C@H]2O6)ccn1 160 nM

###

For each entry below, report its Ratio Ki value.
assay: Selectivity ratio of Ki for delta opioid receptor to Ki for mu opioid receptor

# Ratio Ki lookup, item O=C(CCc1ccncc1)N[C@@H]1CC[C@@]2(O)[C@H]3Cc4ccc(O)c5c4[C@@]2(CCN3CC2CC2)[C@H]1O5 516

Another compound: COc1cc(C(=O)N[C@@H]2CC[C@@]3(O)[C@H]4Cc5ccc(O)c6c5[C@@]3(CCN4CC3CC3)[C@H]2O6)ccn1 267

Another compound: O=C(N[C@@H]1CC[C@@]2(O)[C@H]3Cc4ccc(O)c5c4[C@@]2(CCN3CC2CC2)[C@H]1O5)c1ccnnc1 203

Another compound: C[N@+]1(CC2CC2)CC[C@]23c4c5ccc(O)c4O[C@H]2C(=O)CC[C@@]3(O)[C@H]1C5 24

Another compound: COc1cnccc1C(=O)N[C@@H]1CC[C@@]2(O)[C@H]3Cc4ccc(O)c5c4[C@@]2(CCN3CC2CC2)[C@H]1O5 242

Another compound: O=C(N[C@@H]1CC[C@@]2(O)[C@H]3Cc4ccc(O)c5c4[C@@]2(CCN3CC2CC2)[C@H]1O5)c1ccnc(Cl)c1 6110

Another compound: Cc1cc(C(=O)N[C@@H]2CC[C@@]3(O)[C@H]4Cc5ccc(O)c6c5[C@@]3(CCN4CC3CC3)[C@H]2O6)ccn1 232

Another compound: O=C(N[C@@H]1CC[C@@]2(O)[C@H]3Cc4ccc(O)c5c4[C@@]2(CCN3CC2CC2)[C@H]1O5)c1ccnc(Br)c1 276

Another compound: N#Cc1cc(C(=O)N[C@@H]2CC[C@@]3(O)[C@H]4Cc5ccc(O)c6c5[C@@]3(CCN4CC3CC3)[C@H]2O6)ccn1 60

Another compound: CN1CCC(C(=O)N[C@@H]2CC[C@@]3(O)[C@H]4Cc5ccc(O)c6c5[C@@]3(CCN4CC3CC3)[C@H]2O6)CC1 2970

Another compound: O=C(N[C@@H]1CC[C@@]2(O)[C@H]3Cc4ccc(O)c5c4[C@@]2(CCN3CC2CC2)[C@H]1O5)c1ccncc1Br 285

Another compound: O=C(Cc1ccncc1)N[C@@H]1CC[C@@]2(O)[C@H]3Cc4ccc(O)c5c4[C@@]2(CCN3CC2CC2)[C@H]1O5 1020

Another compound: O=C(N[C@@H]1CC[C@@]2(O)[C@H]3Cc4ccc(O)c5c4[C@@]2(CCN3CC2CC2)[C@H]1O5)c1ccncc1Cl 746

Another compound: Cc1cnccc1C(=O)N[C@@H]1CC[C@@]2(O)[C@H]3Cc4ccc(O)c5c4[C@@]2(CCN3CC2CC2)[C@H]1O5 470

Recorded values, source ChEMBL document CHEMBL2176919.
